assay: Plasma pharmacokinetics (LC-MS/MS); format: in vivo, human; conditions: human, plasma, oral, 200 mg, C1D1, 200 mg BID, n=6; read-out: AUCinf, Mean (SD)
ENDPOINT: AUC(0-inf) (ng·h/mL)
Please state the figure in ng·h/mL; there is no need to write the unit.

Lookup: Using known records, supply AUC(0-inf) for CC1(N)CCN(c2cccnc2NC(=O)c2nc(-c3ncccc3C(F)(F)F)cnc2N)CC1
Found: 29200

----------
assay: Plasma pharmacokinetics (LC-MS/MS); type: in vivo, human; details: human, plasma, oral, 500 mg, C1D1, 500 mg QD, n=10; read-out: AUCinf, Geo-mean
ENDPOINT: AUC(0-inf) (ng·h/mL)
Please state the figure in ng·h/mL; there is no need to write the unit.

Lookup: Using known records, supply AUC(0-inf) for CC1(N)CCN(c2cccnc2NC(=O)c2nc(-c3ncccc3C(F)(F)F)cnc2N)CC1
Found: 59500

----------
assay: Plasma pharmacokinetics (LC-MS/MS); assay type: in vivo, human; settings: human, plasma, oral, 100 mg, C1D15, 100 mg QD, n=2; read-out: AUC0-t, Geo-mean
ENDPOINT: AUC(0-t)

Lookup: Using known records, supply AUC(0-t) for CC1(N)CCN(c2cccnc2NC(=O)c2nc(-c3ncccc3C(F)(F)F)cnc2N)CC1
Found: 10400 ng·h/mL

----------
test: Plasma pharmacokinetics (LC-MS/MS); type: in vivo, human; settings: human, plasma, oral, 200 mg, C1D1, 200 mg BID, n=6; read-out: T1/2, Median (Min, max) (converted)
ENDPOINT: half-life
Number first, unit second: that is the form wanted.

Lookup: Using known records, supply half-life for CC1(N)CCN(c2cccnc2NC(=O)c2nc(-c3ncccc3C(F)(F)F)cnc2N)CC1 [LXS196]
Found: 786 min
